B1: TPR 5TU (parent)
chain: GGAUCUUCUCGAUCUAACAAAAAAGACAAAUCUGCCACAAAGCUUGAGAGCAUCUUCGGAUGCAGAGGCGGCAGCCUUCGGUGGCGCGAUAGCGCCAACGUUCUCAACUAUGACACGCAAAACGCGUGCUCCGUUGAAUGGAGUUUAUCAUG

# Variants of: B1
# MEASUREMENT_DESCRIPTION: polymerase ribozyme fitness, log enrichment relative to wild type (log ratio); higher = more active; in vitro selection for triplet polymerase activity
Variants at the floor of the assay were thinned out.
Respond with yes (1) for polymerase ribozyme fitness (log ratio) values of -1 and above, no (0) for values below.

Dear colleague, could you confirm whether U31C G50A C96G has polymerase ribozyme fitness (log ratio) at or above -1?
yes (1)

Dear colleague, could you confirm whether C14U C76A C87U has polymerase ribozyme fitness (log ratio) at or above -1?
no (0)

Dear colleague, could you confirm whether G46A C85G A106C C125A has polymerase ribozyme fitness (log ratio) at or above -1?
no (0)

Dear colleague, could you confirm whether C38U C96G has polymerase ribozyme fitness (log ratio) at or above -1?
no (0)

Dear colleague, could you confirm whether A17U C36G G67U C87G C95G C99A C103A has polymerase ribozyme fitness (log ratio) at or above -1?
no (0)

Dear colleague, could you confirm whether C35U A41G C85U G141U has polymerase ribozyme fitness (log ratio) at or above -1?
yes (1)

Dear colleague, could you confirm whether U45A U148G C149G has polymerase ribozyme fitness (log ratio) at or above -1?
no (0)

Dear colleague, could you confirm whether C51G A73G C79G C87G G140C U144A has polymerase ribozyme fitness (log ratio) at or above -1?
no (0)

Dear colleague, could you confirm whether C27U U33G C95U has polymerase ribozyme fitness (log ratio) at or above -1?
no (0)

Dear colleague, could you confirm whether C85G C87U U145A has polymerase ribozyme fitness (log ratio) at or above -1?
no (0)

Dear colleague, could you confirm whether G92U G141C has polymerase ribozyme fitness (log ratio) at or above -1?
no (0)

Dear colleague, could you confirm whether A19G G59U G84U C105G has polymerase ribozyme fitness (log ratio) at or above -1?
no (0)

Dear colleague, could you confirm whether A23C C32U A64G G81A C87G C95U C96A A97G A138C G141U has polymerase ribozyme fitness (log ratio) at or above -1?
no (0)

Dear colleague, could you confirm whether C87A A89U C129G has polymerase ribozyme fitness (log ratio) at or above -1?
no (0)

Dear colleague, could you confirm whether U6A C85U has polymerase ribozyme fitness (log ratio) at or above -1?
yes (1)

Dear colleague, could you confirm whether A21C A24U C54G C85U A121C has polymerase ribozyme fitness (log ratio) at or above -1?
yes (1)

Dear colleague, could you confirm whether C54A A97U has polymerase ribozyme fitness (log ratio) at or above -1?
no (0)

Dear colleague, could you confirm whether U7C A16U A49G G92C has polymerase ribozyme fitness (log ratio) at or above -1?
no (0)

Dear colleague, could you confirm whether U55G G81A U139C has polymerase ribozyme fitness (log ratio) at or above -1?
no (0)

Dear colleague, could you confirm whether C8G U82A C85A A91U C96U G117C has polymerase ribozyme fitness (log ratio) at or above -1?
no (0)

Dear colleague, could you confirm whether A23G A37G A39G U44A A64U C75U C95U C108A A142U has polymerase ribozyme fitness (log ratio) at or above -1?
no (0)

Dear colleague, could you confirm whether G46A U135G has polymerase ribozyme fitness (log ratio) at or above -1?
no (0)

Dear colleague, could you confirm whether U9A G25U C36U G50C G86A has polymerase ribozyme fitness (log ratio) at or above -1?
no (0)

Dear colleague, could you confirm whether C35G G141C has polymerase ribozyme fitness (log ratio) at or above -1?
no (0)

Dear colleague, could you confirm whether A12U G67U G84A A110U has polymerase ribozyme fitness (log ratio) at or above -1?
no (0)

Dear colleague, could you confirm whether A16G A37U A60U G71C G84A C116A G124C U146G has polymerase ribozyme fitness (log ratio) at or above -1?
no (0)

Dear colleague, could you confirm whether C14U A26U C54U C79U G94A U111G C123U has polymerase ribozyme fitness (log ratio) at or above -1?
no (0)

Dear colleague, could you confirm whether C63U C76A C103G U146G U148G has polymerase ribozyme fitness (log ratio) at or above -1?
no (0)

Dear colleague, could you confirm whether A29U C32A A41U G71C C85U C87U A98C has polymerase ribozyme fitness (log ratio) at or above -1?
no (0)

Dear colleague, could you confirm whether A12C C35U G86A C93U has polymerase ribozyme fitness (log ratio) at or above -1?
no (0)

Dear colleague, could you confirm whether U15C A20U A41U C57G A98G has polymerase ribozyme fitness (log ratio) at or above -1?
no (0)

Dear colleague, could you confirm whether A47C C57A G84U A89C has polymerase ribozyme fitness (log ratio) at or above -1?
no (0)

Dear colleague, could you confirm whether A3C U45A G67U G71C G80C C95A C103A has polymerase ribozyme fitness (log ratio) at or above -1?
no (0)

Dear colleague, could you confirm whether U7A A73G C87G C131A has polymerase ribozyme fitness (log ratio) at or above -1?
no (0)

Dear colleague, could you confirm whether C96G A121C C129U has polymerase ribozyme fitness (log ratio) at or above -1?
yes (1)

Dear colleague, could you confirm whether A22U C32A C36A C57U C96G C116U U139G has polymerase ribozyme fitness (log ratio) at or above -1?
no (0)

Dear colleague, could you confirm whether C72U G126U C132A has polymerase ribozyme fitness (log ratio) at or above -1?
no (0)

Dear colleague, could you confirm whether U146A has polymerase ribozyme fitness (log ratio) at or above -1?
yes (1)

Dear colleague, could you confirm whether A16U C96U has polymerase ribozyme fitness (log ratio) at or above -1?
no (0)

Dear colleague, could you confirm whether C51U A73G G92U has polymerase ribozyme fitness (log ratio) at or above -1?
yes (1)

Dear colleague, could you confirm whether A16G U55A G74A U82G C85G has polymerase ribozyme fitness (log ratio) at or above -1?
no (0)

Dear colleague, could you confirm whether C51U G84A C96A C149U has polymerase ribozyme fitness (log ratio) at or above -1?
no (0)

Dear colleague, could you confirm whether A23G U55A C87U has polymerase ribozyme fitness (log ratio) at or above -1?
no (0)

Dear colleague, could you confirm whether U31C C54A C93G has polymerase ribozyme fitness (log ratio) at or above -1?
no (0)

Dear colleague, could you confirm whether C38G A41G U55A G83A G143A has polymerase ribozyme fitness (log ratio) at or above -1?
no (0)
